Item-by-item account of TGI
- Tested on: OVCAR-5 ovarian
- Assay Notes: NCI tumour cell line growth inhibition, 48 h

Consider the worked cases shown below.
CCc1cc2c(c3c1CCCC3=O)CC1(C2)Cc2cc(CC)c3c(c2C1)C(=O)CCC3 ... > 100 µM
CC1=C(CNO)C2=C(C)C3(CC3)[C@@](C)(O)C(=O)C2=C1 ... 17.4 µM
COc1cc2cc3c(c(O)c2c(O)c1-c1c(OC)cc2cc4c(c(O)c2c1O)C(=O)O[C@H](C)C4)C(=O)O[C@H](C)C3 ... > 100 µM

May I ask what TGI has been recorded for N#CCCN(CCC#N)c1ccc(C=Nc2ccc(F)cc2)cc1 ?
> 100 µM

May I ask what TGI has been recorded for O=C(CC1=Nc2nnc(-c3nnc4n3C(=O)C(CC(=O)C3CC3)=N4)n2C1=O)C1CC1 ?
> 100 µM

###

- System: NCI-H460 lung
- Assay Notes: NCI tumour cell line growth inhibition, 48 h
Where a SMILES comes first, the peptide text is derived from it. The star is where a group is joined. Cbz = O=C(OCc1ccccc1)*; Boc = CC(C)(C)OC(=O)*; OSu = O=C1CCC(=O)N1O*; Bn = c1ccc(C*)cc1
Item-by-item account of TGI

Consider the worked cases shown below.
O=C(O)C1(C(O)c2ccccc2)SCCCS1 (stereo not given) ... > 10 µM
O=c1nc2[nH]c3c(-c4n[nH]c(=O)[nH]c4=O)cccc3c2n[nH]1 ... > 100 µM
N#CCCN(CCC#N)c1ccc(C=Nc2ccc(F)cc2)cc1 ... > 100 µM
COc1ccc(/C(C)=C(\c2ccc(Cl)cc2)c2ccc(OCCN3CCCCCC3)cc2)cc1F ... 5.4 µM

May I ask what TGI has been recorded for CC(C)=CCC/C(C)=C/C=C/C(C)=C/C1C[C@@]2(C(O)O1)[C@H](CCCO)/C(=C(/C)C=O)CC[C@]2(C)O (stereo not given in full) ?
25.5 µM

May I ask what TGI has been recorded for Oc1ccc(SCc2cc(O)ccc2O)cc1 ?
> 86.7 µM

May I ask what TGI has been recorded for CNCc1cccc2c1OCCOCCOCCC(C)S(=O)(=O)c1ccc(cc1)-c1cnc(N)c(n1)C(=O)N2 (stereo not given) ?
2.73 µM

May I ask what TGI has been recorded for CC(C)(C)OC(=O)NC(Cc1ccc(OCc2ccccc2)cc1)C(=O)NC(CCCCNC(=O)OCc1ccccc1)C(=O)NC(CCCCNC(=O)OCc1ccccc1)C(=O)ON1C(=O)CCC1=O (stereo not given) (Boc-Tyr(Bn)-Lys(Cbz)-Lys(Cbz)-OSu; configuration not given here) ?
> 100 µM

May I ask what TGI has been recorded for O=C1/C(=C/c2ccc(Cl)cc2)Oc2ccccc21 ?
> 100 µM

May I ask what TGI has been recorded for O=C1CCS/C(=N/S(=O)(=O)c2ccc(N3N=C4c5ccccc5CC4C3c3cccs3)cc2)N1Cc1ccccc1 (stereo not given) ?
> 100 µM

###

- System: A498 renal
- Assay Notes: NCI tumour cell line growth inhibition, 48 h
Measure: TGI

Consider the worked cases shown below.
CC(C)[C@@H]1NC(=O)[C@@H]2N=C(O[C@H]2C)[C@H](C(C)C)NC(=O)C2N=C1O[C@H]2C ... > 100 µM
N#CCC1(n2cc(-c3ncnc4[nH]ccc34)cn2)CN(C2CCN(C(=O)c3ccnc(C(F)(F)F)c3F)CC2)C1 ... > 100 µM
COc1cc(/C=C2/Oc3c(OC)cccc3C2=O)ccc1O ... > 100 µM
CC(=O)N[C@@H](Cc1ccc(O)cn1)C(=O)NC1CCCCC1 ... > 100 µM
O=C1c2ccccc2C(=O)c2sc(Nc3cc(Cl)ccc3Cl)nc21 ... 41.9 µM
CCCCCCCCCCCCCCCC(=O)OCC1OC(n2cc(F)c(=O)[nH]c2=O)C(NC(=O)N(CCCl)N=O)C(O)C1O (stereo not drawn) ... 10.1 µM
CN(/N=C\c1ccc2ccccc2c1)C1=NCCCN1 ... 28.8 µM
NC(N)=NCCCC(NC(=O)c1c2ccccc2nc2ccccc12)C(=O)O (stereo not drawn) ... > 100 µM
Cc1ccc(C2=C(Cl)C(=O)C(c3ccc(C)cc3)=C(Cl)C2=O)cc1 ... > 100 µM
C=CCN=C(N/N=C/c1ccc([N+](=O)[O-])o1)NS(=O)(=O)c1cc(C(=O)Nc2ccccc2)c(Cl)cc1SCC(N)=O ... > 100 µM

May I ask what TGI has been recorded for COc1cccc(CCCNC(=O)Cc2ccccc2CO)c1 ?
> 100 µM

May I ask what TGI has been recorded for N#CCCN(CCC#N)c1ccc(C=Nc2ccc(F)cc2)cc1 ?
> 100 µM

May I ask what TGI has been recorded for CCOC(=O)c1cc2c3c(cc(OC)c2[nH]1)N(C(=O)OCC)CC3 ?
> 100 µM

May I ask what TGI has been recorded for CC(C)(CN1CCCCC1)C(=O)CC(SCCS(=O)(=O)O)c1ccc(Cl)cc1 (stereo not drawn) ?
13.5 µM
